Hey, just so you know, these numbers are from ChEMBL document CHEMBL1201862.

# Measured On: Heat shock factor protein 1 (Mus musculus, UniProt P38532)
# Sequence (P38532 whole entry): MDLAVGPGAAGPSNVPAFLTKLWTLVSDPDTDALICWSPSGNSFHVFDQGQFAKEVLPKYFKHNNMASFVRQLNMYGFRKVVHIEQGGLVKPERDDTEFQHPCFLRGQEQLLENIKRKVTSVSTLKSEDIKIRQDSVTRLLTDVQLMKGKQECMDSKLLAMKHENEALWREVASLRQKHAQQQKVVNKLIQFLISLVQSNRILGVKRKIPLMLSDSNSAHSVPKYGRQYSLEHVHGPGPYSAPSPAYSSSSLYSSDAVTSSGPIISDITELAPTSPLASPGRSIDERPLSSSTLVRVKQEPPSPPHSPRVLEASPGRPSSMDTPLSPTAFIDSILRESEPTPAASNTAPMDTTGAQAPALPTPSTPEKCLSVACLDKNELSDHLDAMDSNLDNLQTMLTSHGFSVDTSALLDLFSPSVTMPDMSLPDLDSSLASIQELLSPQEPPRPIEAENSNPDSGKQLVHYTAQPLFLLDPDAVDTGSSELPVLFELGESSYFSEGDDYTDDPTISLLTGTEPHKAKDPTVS
# Test Description: HSF1 potentiators in luciferase reporter cells, confirmation, cell-based, NIH3T3, luminescence, dose retest (AID 435004);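 also: stress induced by proteasome inhibitor MG132 added 30 min after compound; luciferase reporter driven by HSF1 response element in NIH3T3 cells; actives raise luminescence as potentiators of the MG132 stress response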
# Format: functional
Calls of active or inactive are those of the source.
Bench note: report the call from active, inactive

Some solved entries appear below for comparison.
# Compound, Discrete Label
measured = [
    ("CCOC(=O)Cc1cnc(NC(=O)NC(C(=O)OCC)(c2ccccc2)C(F)(F)F)s1 (stereo not given)", "inactive"),
    ("COCCCn1c(Cc2csc(Nc3ccc(F)cc3)n2)nnc1SCC(N)=O", "inactive"),
    ("CCCc1nc(SCC(=O)Nc2cc(C)on2)c2ccccc2n1", "active"),
]

Assay outcome for Cc1cccc(C)c1OCC(=O)N/N=C/C=C/c1ccco1 : what was it?
inactive

Subsequent entry: CN1CC=C2C(C#N)=C(N)C(C#N)(C#N)C(c3cccc(Cl)c3Cl)C2C1 (stereo not given)
inactive

And the next one, CCOC(=O)CN1CCC(c2cc(-c3ccc(Cl)cc3)[nH]n2)CC1 ?
inactive

Param item: C=CCSc1nnc(N2C(=O)C(O)=C(C(=O)c3ccco3)C2c2ccc(F)cc2)s1 (stereo not given)
inactive

Record: CC(=O)Oc1c(Cl)cc(N(C(C)=O)S(=O)(=O)c2ccccc2)c2ccccc12
inactive

Would you kindly repeat that for O=C(NN1C(=O)C2C(C1=O)C1C=CC2C12CC2)c1ccc(Cl)cc1 (stereo not given) ?
inactive

* * *

# Measured On: Calpain-2 catalytic subunit (Sus scrofa)
# Sequence (P43367 whole entry): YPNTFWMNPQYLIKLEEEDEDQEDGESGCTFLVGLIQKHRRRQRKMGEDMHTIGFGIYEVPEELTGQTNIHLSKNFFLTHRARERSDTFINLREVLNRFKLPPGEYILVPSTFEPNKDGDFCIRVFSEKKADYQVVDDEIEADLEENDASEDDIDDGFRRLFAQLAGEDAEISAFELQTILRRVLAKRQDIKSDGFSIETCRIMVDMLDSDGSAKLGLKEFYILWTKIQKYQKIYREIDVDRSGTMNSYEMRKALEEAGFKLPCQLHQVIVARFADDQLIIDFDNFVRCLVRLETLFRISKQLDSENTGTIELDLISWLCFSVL
# Test Description: pig calpain II inhibitor potency, dose response, biochemical, fluorogenic peptide substrate (AID 1420)
# Assay type: functional
Activity calls are given as the source filed them.
Measured Endpoint: IC50

# Compound, Data Value
data = [
    ("CC(C)(C)c1ccc(C(=O)Nc2cccc([N+](=O)[O-])c2)cc1", "2.13 µM (not active)"),
]

Give measured IC50 for every item shown.
1. COc1cccc(-n2c(SCC(=O)OC(C)C)nnc2-c2cccnc2)c1
2. Cn1c(N)c(C(=O)COC(=O)c2ncc(Cl)c(Cl)c2Cl)c(=O)n(C)c1=O
3. Cc1ccc(CNC(=O)c2ccc3c(=O)[nH]c4c(C(=O)NCC5CCCO5)sc(=S)n4c3c2)cc1 (stereo not given)
4. S=C(NCc1ccc(Cl)cc1)NC1CCN(Cc2ccccc2)CC1
5. O=[N+]([O-])c1ccc(NCc2ccccc2)nc1
6. CCCCN1C(=O)NC(=O)/C(=C(\C)NCCc2ccccc2)C1=O
7. O=C1CC(SC(=NCc2ccc3c(c2)OCO3)Nc2ccccc2)C(=O)N1c1ccccc1 (stereo not given)

> 50 µM (not active)
9.79 µM (active)
5.68 µM (active)
18.6 µM (not active)
34.1 µM (not active)
17.7 µM (not active)
> 50 µM (not active)

State recorded IC50 for all listed compounds.
1. Nc1cc(S(=O)(=O)N2CCCCC2)ccc1Oc1ccccc1
2. O/N=C(\c1ccc2c(c1)OCCO2)C1CCCCC1

1. 20.8 µM (not active)
2. 25.1 µM (not active)

* * *

# Measured On: Prothrombin (Homo sapiens, UniProt P00734)
# Test Description: Thrombin 1536 HTS Dose Response Confirmation. [Related pubchem assays: 1046 (Thrombin 1536 HTS; hits were confirmed in this assay)]
# Format: functional
Calls of active or inactive are those of the source.
Measured Endpoint: IC50

Solved entries:
# Compound, Measured On, IC50
rows = [
    ("COc1ccccc1N1CCN(C(=O)CNC(=O)c2cn(-c3ccccc3OC)c(=O)c3ccccc23)CC1", "Prothrombin (Homo sapiens, UniProt P00734)", "9.56 µM (active)"),
    ("CCCOP(=O)(c1ccc(N(C)C)cc1)C(O)c1ccncc1 (stereo not given)", "Prothrombin (Homo sapiens, UniProt P00734)", "> 50 µM (not active)"),
    ("Cc1ccc(C(=O)CSc2nc(C)cc(C)c2C(N)=O)cc1", "Prothrombin (Homo sapiens, UniProt P00734)", "> 50 µM (not active)"),
    ("CSc1nc(-c2ccco2)nn1C(=O)c1ccc(C)cc1", "Prothrombin (Homo sapiens, UniProt P00734)", "0.16 µM (active)"),
]

Continue with the next compound.
# IC50 lookup, item C/C(=N\NC(=S)NC1CCCCC1)c1cccc(Br)c1
> 50 µM (inconclusive)

* * *

# Test system: BJ
# Test Description: cells
# Format: functional, cell-based
# Condition Parameters: Homo sapiens
Calls of active or inactive are those of the source.
Measured Endpoint: EC50

Example results:
# Item Smiles, Data Value
records = [
    ("CCOc1ccc(C(C)=O)cc1COc1cccnc1[N+](=O)[O-]", "32.2 µM (active)"),
    ("Cc1ccc(/C=C2/C(=O)ON=C2c2ccccc2)o1", "18.3 µM (active)"),
    ("CCOc1ccccc1C(=O)N1CCN(c2cccc(Cl)c2)CC1", "2.85 µM (inconclusive)"),
]

Hey, quick one: what's EC50 for each of these?
1. CN1CCN(CC(=O)Nc2ccc([N+](=O)[O-])cc2C(=O)c2ccccc2)CC1
2. COc1ccc(N/N=C(\C=N\O)C(=O)c2ccc(OC)cc2)cc1
3. CCOc1ccc(-n2c(C)cc(C(=O)CCl)c2C)cc1
4. COc1cccc(N2C(N)=NC(N)=NC2(C)C)c1

["> 150 µM (not active)", "49 µM (active)", "4.84 µM (active)", "5.99 µM (inconclusive)"]

* * *

For each record, write down the corresponding AC50.
# Measured On: UniProt P10635
# Sequence (P10635 whole entry): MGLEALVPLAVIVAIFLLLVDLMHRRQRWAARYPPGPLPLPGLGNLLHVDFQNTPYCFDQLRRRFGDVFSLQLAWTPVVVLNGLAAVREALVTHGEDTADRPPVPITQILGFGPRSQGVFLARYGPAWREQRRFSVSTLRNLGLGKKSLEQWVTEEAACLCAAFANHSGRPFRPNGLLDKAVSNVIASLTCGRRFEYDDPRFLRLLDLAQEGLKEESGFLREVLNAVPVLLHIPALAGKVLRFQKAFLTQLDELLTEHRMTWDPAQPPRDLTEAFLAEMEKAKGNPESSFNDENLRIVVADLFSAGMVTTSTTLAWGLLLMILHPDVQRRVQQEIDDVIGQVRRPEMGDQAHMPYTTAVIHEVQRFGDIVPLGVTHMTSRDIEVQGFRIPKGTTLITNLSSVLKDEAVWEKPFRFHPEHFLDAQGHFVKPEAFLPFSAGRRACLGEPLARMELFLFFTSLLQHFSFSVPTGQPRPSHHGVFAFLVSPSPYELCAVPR

Completed entries (count: 5):
# Molecule, AC50
data = [
    ("Clc1ccccc1-c1nc(NCCN2CCOCC2)c2ccccc2n1", "20 µM (inconclusive)"),
    ("FC(F)(F)c1ccccc1-c1nc(NCCN2CCOCC2)c2ccccc2n1", "31.6 µM (inconclusive)"),
    ("O=C(c1n[nH]c(=O)c2ccccc12)N1CCN(C2c3ccccc3-c3ccccc32)CC1", "31.6 µM (inconclusive)"),
    ("Cc1cnc(CNc2nc(-c3ccccc3C(F)(F)F)nc3ccccc23)cn1", "25.1 µM (inconclusive)"),
    ("CN1CCc2cccc(Cl)c2CC1", "31.6 µM (inconclusive)"),
]

List the reported AC50 of each molecule below.
1. CCOc1ccc(C2C(C(=O)O)c3ccccc3C(=O)N2CCN2CCOCC2)cc1 (configuration not stated)
2. Cc1cc(C)c2c(-n3cccc3)nn(CC#N)c2n1
3. COc1cccc(-c2cncnc2NCc2cccnc2)c1
4. N#C/C(=C\c1c[nH]c2ccccc12)C(=O)c1ccc(O)c(O)c1
5. Cc1cc(-c2ccc(/C=N/n3cnnc3)o2)c([N+](=O)[O-])cc1C
6. O=C(c1cc(C(F)(F)F)cc(C(F)(F)F)c1)N1CCC2(CCCN(c3ncccn3)C2)CC1

["25.1 µM (inconclusive)", "10 µM (inconclusive)", "20 µM (inconclusive)", "25.1 µM (inconclusive)", "11.2 µM (inconclusive)", "10 µM (inconclusive)"]

Form field: AC50 recorded for CCCCCCCCCCCCC(=O)N1CCCC[C@H]1CNC(=O)[C@@H](N)CCCCN with UniProt P10635 (enter value)
25.1 µM (inconclusive)

* * *

# Measured On: Cytochrome P450 1A2 (Homo sapiens)
# Sequence (P05177 whole entry): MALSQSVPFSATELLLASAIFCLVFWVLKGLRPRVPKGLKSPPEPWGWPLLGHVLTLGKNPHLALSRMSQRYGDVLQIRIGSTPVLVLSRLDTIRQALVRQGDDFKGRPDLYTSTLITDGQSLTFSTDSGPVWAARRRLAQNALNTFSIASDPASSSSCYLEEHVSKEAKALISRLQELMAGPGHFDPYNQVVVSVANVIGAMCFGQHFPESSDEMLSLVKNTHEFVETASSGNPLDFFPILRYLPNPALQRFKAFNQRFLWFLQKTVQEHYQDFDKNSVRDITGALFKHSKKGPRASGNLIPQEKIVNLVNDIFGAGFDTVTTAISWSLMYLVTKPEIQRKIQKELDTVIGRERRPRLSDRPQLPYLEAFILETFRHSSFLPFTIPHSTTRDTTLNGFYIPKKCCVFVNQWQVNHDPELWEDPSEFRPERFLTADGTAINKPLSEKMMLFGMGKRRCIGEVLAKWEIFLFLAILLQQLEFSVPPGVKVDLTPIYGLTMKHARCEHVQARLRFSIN
Measured Endpoint: AC50

The examples below pair each entry with its known result.
# Compound, AC50
measured = [
    ("c1cnc(N2CC[C@@]3(CCCNC3)C2)nc1", "25.1 µM (inconclusive)"),
    ("COc1cccc(Cn2c(=O)c(-c3cn(C)c4ccccc34)nc3cnc(N4CCOCC4)nc32)c1", "25.1 µM (inconclusive)"),
    ("O=S(=O)(O)c1ccc(/N=N\\c2ccc3c(S(=O)(=O)O)cccc3c2O)c2ccccc12", "3.16 µM (inconclusive)"),
    ("CCNc1ncc2nc(-c3ccc(OC)cc3)c(=O)n(CCC#N)c2n1", "10 µM (inconclusive)"),
    ("Cc1ccc(C(=O)Nc2ccc(N3CCOCC3)nc2)cc1", "17.8 µM (inconclusive)"),
    ("CCc1noc(C)c1C(=O)Nc1nc(-c2cc(C)ccc2C)c(C)s1", "15.8 µM (inconclusive)"),
    ("Cc1ccccc1NC(=O)Cn1cnc2c1c(=O)n(C)c(=O)n2C", "15.8 µM (inconclusive)"),
    ("COc1ccc2c(CC(=O)NCC3CCC(C(=O)O)CC3)cc(=O)oc2c1 (stereo not given)", "22.4 µM (inconclusive)"),
]

# map each compound to its AC50
1. Cc1ccc(NC(=O)C(C)N2C(=O)C3C4CC(C(Br)C4Br)C3C2=O)cc1 (stereo not given)
2. C[C@@H](C(=O)O)c1ccc(C(=O)c2ccccc2)s1
3. FC(F)(F)c1cccc(N2CCN(CC3CC4C=CC3C4)CC2)c1 (stereo not given)
4. O=C(c1cc(C(F)(F)F)cc(C(F)(F)F)c1)N1CCC2(CCCN(c3ncccn3)C2)CC1
5. O=C1CC(N(O)C2CC(=O)N(Cc3ccccc3)C2=O)C(=O)N1Cc1ccccc1 (stereo not given)
6. CCCCCCCCCCCCC(=O)N1CCCC[C@H]1CNC(=O)[C@@H](N)CCCCN

1. 25.1 µM (inconclusive)
2. 0.251 µM (inconclusive)
3. 11.2 µM (inconclusive)
4. 31.6 µM (inconclusive)
5. 39.8 µM (inconclusive)
6. 31.6 µM (inconclusive)

Record AC50 per entry; entries follow.
1. CN(CCc1ccc(Cl)c(Cl)c1)[C@H]1CCCC[C@H]1N1CCCC1
2. N#CC(C#N)=Cc1ccc([N+](=O)[O-])c(O)c1
3. COc1ccccc1-n1c(SCC(=O)N2CCCC2)nc2cccnc21
4. O=C(Cc1ccccc1)NC(NCCc1ccccc1)C(Cl)(Cl)Cl (stereo not given)
5. O=C(CN1CCN(c2ccc(Cl)cc2)CC1)Nc1ccc(F)c(F)c1
6. O=C(O)c1cc(-c2ccc(-c3ccccc3)cc2)nc2cc3ccccc3cc12

1: 31.6 µM (inconclusive); 2: 31.6 µM (inconclusive); 3: 0.1 µM (inconclusive); 4: 25.1 µM (inconclusive); 5: 14.1 µM (inconclusive); 6: 0.794 µM (inconclusive)
